Measured values drawn from patent US8778872B2 for this set.

- TEST METHOD NOTES: Dipeptide cleavage half time in PBS on model hexapeptide (HPLC / LC-MS)
- APPLIED CONDITIONS: buffer
Where a SMILES comes first, the peptide text is derived from it. [ ]: non-standard residue; d: D form. Ac6c = NC1(C(=O)O)CCCCC1
EXPERIMENTAL READOUT: half-life (h)

Answered cases to consult:
C[C@@H](O)[C@H](NC(=O)CNC(=O)[C@H](CCCNC(=N)N)NC(=O)[C@H](CO)NC(=O)[C@H](Cc1c[nH]cn1)NC(=O)[C@@H](N)Cc1ccc(NC(=O)[C@@H]2CCCN2C(=O)[C@@H]2CCCN2)cc1)C(=O)N[C@@H](Cc1ccccc1)C(N)=O ... 97
C[C@@H](O)[C@H](NC(=O)CNC(=O)[C@H](CCCNC(=N)N)NC(=O)[C@H](CO)NC(=O)[C@H](Cc1c[nH]cn1)NC(=O)[C@@H](N)Cc1ccc(NC(=O)[C@@H]2CCCN2C(=O)[C@@H](N)CCCCN)cc1)C(=O)N[C@@H](Cc1ccccc1)C(N)=O ... 33
C[C@@H](O)[C@H](NC(=O)CNC(=O)[C@H](CCCNC(=N)N)NC(=O)[C@H](CO)NC(=O)[C@H](Cc1c[nH]cn1)NC(=O)[C@@H](N)Cc1ccc(NC(=O)[C@@H]2CCCN2C(=O)[C@H](N)CCCCN)cc1)C(=O)N[C@@H](Cc1ccccc1)C(N)=O ... 11
C[C@@H](O)[C@H](NC(=O)CNC(=O)[C@H](CCCNC(=N)N)NC(=O)[C@H](CO)NC(=O)[C@H](Cc1c[nH]cn1)NC(=O)[C@@H](N)Cc1ccc(NC(=O)[C@H]2CCCN2C(=O)[C@H](N)Cc2ccccc2)cc1)C(=O)N[C@@H](Cc1ccccc1)C(N)=O ... 39

A: C[C@@H](O)[C@H](NC(=O)CNC(=O)[C@H](CCCNC(=N)N)NC(=O)[C@H](CO)NC(=O)[C@H](Cc1c[nH]cn1)NC(=O)[C@@H](N)Cc1ccc(NC(=O)[C@@H]2CCCN2C(=O)[C@@H](N)Cc2ccccc2)cc1)C(=O)N[C@@H](Cc1ccccc1)C(N)=O
B: C[C@@H](O)[C@H](NC(=O)CNC(=O)[C@H](CCCNC(=N)N)NC(=O)[C@H](CO)NC(=O)[C@H](Cc1c[nH]cn1)NC(=O)[C@@H]1CCCN1C(=O)C1(N)CCCCC1)C(=O)N[C@@H](Cc1ccccc1)C(N)=O [Peptide 17] (H-[Ac6c]PHSRGTF-NH2)
C: C[C@@H](O)[C@H](NC(=O)CNC(=O)[C@H](CCCNC(=N)N)NC(=O)[C@H](CO)NC(=O)[C@H](Cc1c[nH]cn1)NC(=O)[C@@H](N)Cc1ccc(NC(=O)[C@@H]2CCCN2C(=O)[C@@H](N)CCC(=O)O)cc1)C(=O)N[C@@H](Cc1ccccc1)C(N)=O
[ask] Number of molecules to sort: 3. Sort criterion: half-life, ascending. # list labels per requested ordering
[reply] B, A, C
(B: 5 h, A: 58 h, C: 85 h)
